# testSystem: MLKL (Homo sapiens)
# Sequence (Q8NB16 whole entry): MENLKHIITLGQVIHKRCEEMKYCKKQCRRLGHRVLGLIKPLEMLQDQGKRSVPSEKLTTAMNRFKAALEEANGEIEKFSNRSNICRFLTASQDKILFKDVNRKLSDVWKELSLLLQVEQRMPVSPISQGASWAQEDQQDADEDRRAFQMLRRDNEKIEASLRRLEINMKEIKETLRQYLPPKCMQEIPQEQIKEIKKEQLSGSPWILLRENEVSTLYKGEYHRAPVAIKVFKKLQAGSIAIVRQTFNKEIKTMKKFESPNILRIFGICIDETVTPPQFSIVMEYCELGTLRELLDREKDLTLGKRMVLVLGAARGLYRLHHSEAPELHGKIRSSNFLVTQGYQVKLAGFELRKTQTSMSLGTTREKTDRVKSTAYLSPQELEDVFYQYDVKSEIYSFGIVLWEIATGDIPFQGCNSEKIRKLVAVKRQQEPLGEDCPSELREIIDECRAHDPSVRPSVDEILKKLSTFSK
# assayNotes: MLKL degradation assay in HepG2 cell line (western blot)
# Format: cell-based
# Set-up: endogenous in cells; host or cells: HepG2 or HaCaT
# conditionParameters: compound 10 μM; cell line not given
Listing of entries alongside the reported Degradation assay (Degradation %) 10 μM.
Please give a number only; it is taken to be in %.

molecule="Nc1ncc(-c2cnn(C3CCN(CCC4CCN(C(=O)Cc5cccc(NC6=CC(=O)N(C7CCC(=O)NC7=O)C6=O)c5)CC4)CC3)c2)nc1C(=O)O[C@@H](C(=O)Nc1ccc(F)cc1)c1ccccc1 (stereo partly drawn) [TDH-518]" testsystem="MLKL (Homo sapiens)" readout="Degradation assay (Degradation %) 10 μM" obsvalue=88.59
molecule="Nc1ncc(-c2cnn(C3CCN(CC4CCN(C(=O)COc5ccc6c(c5)C(=O)N(C5CCC(=O)NC5=O)C6=O)CC4)CC3)c2)nc1C(=O)O[C@@H](C(=O)Nc1ccc(F)cc1)c1ccccc1 (stereo partly drawn) [TDH-171]" testsystem="MLKL (Homo sapiens)" readout="Degradation assay (Degradation %) 10 μM" obsvalue=64.5

Query string: Which Degradation assay (Degradation %) 10 μM is listed for Nc1ncc(-c2cnn(C3CCN(CCC4CCN(C(=O)COc5cccc6c5C(=O)N(C5CCC(=O)NC5=O)C6=O)CC4)CC3)c2)cc1C(=O)OC(C(=O)Nc1ccc(F)cc1)c1ccccc1 (stereo not drawn) [TDH-301] ?
Result string: 89.97
